These entries and their values trace back to PubChem BioAssay (NCATS).

- protocol.description: Vero cells viability qHTS for Zika virus inhibitors (AID 1347167)
- measurement.setup: cytotoxicity counter-screen (Zika); series mostly up to 45.9 µM
Results filed as inconclusive are left out. Calls of active or inactive are those of the source. The call rests on the fitted dose curve; in most records, active means well fitted cell-killing curve with a large enough effect; inconclusive means small, poorly fitted or top-dose-only effect; inactive means flat fitted curve, though single readings scatter. Numbered stars: 1 amine (or outer) side, 2 acyl side, 3 side chain; on linkers, the order of the positions; unused ones are H or OH. Bridge positions count the residues as written; N and C are the ends. Square brackets hold non-standard residues; d marks the D form. Peptide text beside a SMILES is read from it. I, II: the chains in the order shown. Actinocin(9to1) = Cc1c2oc3c(C)ccc(C(=O)[*:1])c3nc-2c(C(=O)[*:2])c(N)c1=O; aThr = C[C@H](O)[C@H](N)C(=O)O; NMeV = CN[C@H](C(=O)O)C(C)C; Sar = CNCC(=O)O
Choose one outcome from this list and give only that: true (1) for active, false (0) for inactive

compound	class.assignment
CC(C)C[C@@H](NC(=O)[C@H](Cc1ccccc1)NC(=O)c1cnccn1)B(O)O	false (0)
CC[C@@H]1O[C@]2(C=C[C@@H]1C)C[C@H]1C[C@H](CC=C(C)[C@@H](O[C@@H]3C[C@H](OC)[C@H](O[C@@H]4C[C@H](OC)[C@H](O)[C@H](C)O4)[C@H](C)O3)[C@@H](C)C=CC=C3CO[C@@H]4[C@@H](O)C(C)=C[C@@H](C(=O)O1)[C@]34O)O2	false (0)
C=CC(C)(C)c1[nH]c2ccccc2c1C1=C(O)C(=O)C(c2c[nH]c3c(CC=C(C)C)cccc23)=C(O)C1=O	false (0)
O=C1c2cccc3c2[C@@H](CCC3)CN1[C@@H]1CN2CCC1CC2	false (0)
Cc1c2oc3c(C)ccc(C(=O)N[C@@H]4C(=O)N[C@@H](C(C)C)C(=O)N5CCC[C@@H]5C(=O)N(C)CC(=O)N(C)[C@@H](C(C)C)C(=O)O[C@H]4C)c3nc-2c(C(=O)N[C@@H]2C(=O)N[C@@H](C(C)C)C(=O)N3CCC[C@@H]3C(=O)N(C)CC(=O)N(C)[C@@H](C(C)C)C(=O)O[C@H]2C)c(N)c1=O (I: [aThr]V[dP][Sar][NMeV] / II: [aThr]V[dP][Sar][NMeV]; ester I:1-I:C, II:1-II:C; linker I:N-II:N via Actinocin(9to1))	false (0)

**Query** Which outcome was entered for the compound CC1CCN(C(c2ccc(F)cc2)c2ccc(C(C)C(=O)O)cc2-c2ccc(C(F)(F)F)cc2)CC1 (stereo not given) in this test?
**Result** true (1)

**Query** Try this compound too: `Cc1cc(C)cc(C(=O)N(C)[C@H](Cc2ccc(-c3ccccc3)cc2)C(=O)N[C@@H](Cc2c[nH]c3ccccc23)C(=O)O)c1`
**Result** false (0)

**Query** Try this compound too: `Cc1ccc2c(=O)c3ccccc3n(CCCN)c2c1C`
**Result** false (0)

**Query** Try this compound too: `CC[C@H](C)[C@H]1O[C@]2(CC[C@@H]1C)C[C@@H]1C[C@@H](C/C=C(\C)[C@@H](O[C@H]3C[C@H](OC)[C@@H](O[C@H]4C[C@H](OC)[C@@H](O)[C@H](C)O4)[C@H](C)O3)[C@@H](C)/C=C/C=C3\CO[C@@H]4[C@H](O)C(C)=C[C@@H](C(=O)O1)[C@]34O)O2`
**Result** false (0)

**Query** Try this compound too: C[C@H]1O[C@@H](O[C@H]2[C@@H](O)C[C@H](O[C@H]3[C@@H](O)C[C@H](O[C@H]4CC[C@]5(C)C6C[C@@H](O)[C@]7(C)[C@@H](C8=CC(=O)OC8)CC[C@]7(O)C6CC[C@@H]5C4)O[C@@H]3C)O[C@@H]2C)C[C@H](O)[C@@H]1O (stereo not given in full)
**Result** false (0)

**Query** Try this compound too: `CN(Cc1ccc(C(=O)O)cc1)c1ccc(OCc2c(-c3c(Cl)cccc3Cl)noc2C2CC2)nc1C(F)(F)F`
**Result** false (0)

**Query** Try this compound too: CCOC(=O)O[C@H](C)OC(=O)C1N2C(=O)[C@H](NC(=O)[C@H](N)c3ccccc3)C2SC1(C)C (stereo not given in full)
**Result** false (0)

**Query** Try this compound too: `CS(=O)(=O)c1ccc(-c2cn3ccccc3n2)cc1`
**Result** false (0)

**Query** Try this compound too: CC1OC(OC2C(O)CC(OC3C(O)CC(OC4CCC5(C)C(CCC6C5CC(O)C5(C)C(C7=CC(=O)OC7)CCC65O)C4)OC3C)OC2C)CC(O)C1O (stereo not given)
**Result** false (0)

**Query** Try this compound too: `Nc1ncnc2c1ncn2[C@@H]1O[C@H](CSCC[C@H](N)C(=O)O)[C@@H](O)[C@H]1O`
**Result** false (0)
